molecular target: EV-A71 3C^pro (Human enterovirus 71 (strain BRCR), UniProt Q66478); conditions: read-out: EV-A71 3Cpro; inhibitor
Sequence (Q66478 1549-1731): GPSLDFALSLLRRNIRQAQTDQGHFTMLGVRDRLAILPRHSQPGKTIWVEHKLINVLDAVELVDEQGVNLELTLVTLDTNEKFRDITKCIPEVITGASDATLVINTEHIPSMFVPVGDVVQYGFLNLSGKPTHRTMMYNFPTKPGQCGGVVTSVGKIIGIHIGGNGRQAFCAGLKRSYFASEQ
PROPERTY_LABEL: pIC50
In textbook form, pIC50 equals minus log to base ten of the concentration in mol/L.

- O=C(CCc1ccccc1)N[C@@H](Cc1ccccc1)C(=O)N[C@@H](C[C@@H]1CCNC1=O)C(=O)C(=O)NCc1ccccc1 [11g]: 5.34
- CCCCNC(=O)C(=O)[C@H](C[C@@H]1CCNC1=O)NC(=O)[C@H](Cc1ccccc1)NC(=O)/C=C/c1ccccc1 [11b]: 5.62
- O=C(NCc1ccccc1)C(=O)[C@H](C[C@@H]1CCNC1=O)NC(=O)[C@H](Cc1ccccc1)NC(=O)c1ccc2c(c1)OCCO2 [11h]: 5.32
- CC(C)(C)NC(=O)C(=O)[C@H](C[C@@H]1CCNC1=O)NC(=O)[C@H](Cc1ccccc1)NC(=O)/C=C/c1ccccc1 [11c]: 4.72

Now take the following compound into account.
Query: Give the measured pIC50 of COC(=O)CNC(=O)C(=O)[C@H](C[C@@H]1CCNC1=O)NC(=O)[C@H](Cc1ccccc1)NC(=O)/C=C/c1ccccc1 [11e] .
Result: 4.95

###

Recorded measurements of IC50, one per entry
target: EV-A71 3C^pro (Human enterovirus 71 (strain BRCR)); settings: read-out: EV-A71 3Cpro; inhibitor
# value in µM; strip the unit string

Below, 2 compounds whose answers are already recorded.
• CC(C)CNC(=O)C(=O)[C@H](C[C@@H]1CCNC1=O)NC(=O)[C@H](CC(C)C)NC(=O)/C=C/c1ccccc1 [11d] = 17.7
• O=C(NCc1ccccc1)C(=O)[C@H](C[C@@H]1CCNC1=O)NC(=O)[C@H](Cc1ccccc1)NC(=O)c1cc2ccccc2o1 [11j] = 11.3

Now take the following compound into account.
Query: Give the measured IC50 of O=C(NCc1ccccc1)C(=O)[C@H](C[C@@H]1CCNC1=O)NC(=O)[C@H](Cc1ccccc1)NC(=O)c1cccc2c1OCCO2 [11i] .
Result: 9.74

###

Reported values: IC50 for UniProt P0C6X5, one per item.
Sequence (P0C6X5 2940-3242): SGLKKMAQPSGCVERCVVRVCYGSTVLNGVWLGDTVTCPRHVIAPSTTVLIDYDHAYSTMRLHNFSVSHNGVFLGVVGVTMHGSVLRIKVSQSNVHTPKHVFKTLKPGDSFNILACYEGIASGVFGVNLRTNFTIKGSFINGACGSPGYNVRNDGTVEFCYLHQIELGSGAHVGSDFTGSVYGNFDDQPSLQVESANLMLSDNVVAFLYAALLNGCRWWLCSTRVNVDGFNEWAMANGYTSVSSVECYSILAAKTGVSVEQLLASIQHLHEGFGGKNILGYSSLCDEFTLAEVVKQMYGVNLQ
# value in µM; strip the unit string

Below, 3 compounds whose answers are already recorded.
* CC(C)C[C@H](NC(=O)/C=C/c1ccccc1)C(=O)N[C@@H](C[C@@H]1CCNC1=O)C(=O)C(=O)NCc1ccccc1 [11n] | 1.08
* O=C(/C=C/c1ccccc1)N[C@@H](CC1CC1)C(=O)N[C@@H](C[C@@H]1CCNC1=O)C(=O)C(=O)NCc1ccccc1 [11s] | 1.37
* O=C(/C=C/c1ccccc1)N[C@@H](CC1CCC1)C(=O)N[C@@H](C[C@@H]1CCNC1=O)C(=O)C(=O)NCc1ccccc1 [11t] | 3.43

Query: Give the measured IC50 of O=C(/C=C/c1ccccc1)N[C@@H](CC1CCCC1)C(=O)N[C@@H](C[C@@H]1CCNC1=O)C(=O)C(=O)NCc1ccccc1 [11u] .
Result: 5.41

###

target: CVB3 3C^pro (Coxsackievirus B3, UniProt Q5UEA2); experiment: biochemical
Recorded measurements of log10 of IC50, one per entry
Remember, log10 of IC50, in µM.

Below, 4 molecules whose answers are already recorded.
• COC(=O)CNC(=O)C(=O)[C@H](C[C@@H]1CCNC1=O)NC(=O)[C@H](Cc1ccccc1)NC(=O)/C=C/c1ccccc1 [11e] = 1.00
• CC(C)CNC(=O)C(=O)[C@H](C[C@@H]1CCNC1=O)NC(=O)[C@H](CC(C)C)NC(=O)/C=C/c1ccccc1 [11d] = 0.81
• O=C(CCc1ccccc1)N[C@@H](Cc1ccccc1)C(=O)N[C@@H](C[C@@H]1CCNC1=O)C(=O)C(=O)NCc1ccccc1 [11g] = 0.54
• CC(C)(C)NC(=O)C(=O)[C@H](C[C@@H]1CCNC1=O)NC(=O)[C@H](Cc1ccccc1)NC(=O)/C=C/c1ccccc1 [11c] = 0.99

Query: # get_value(readout= log10 of IC50, system= CVB3 3C^pro (Coxsackievirus B3, UniProt Q5UEA2)) for O=C(NCc1ccccc1)C(=O)[C@H](C[C@@H]1CCNC1=O)NC(=O)[C@H](Cc1ccccc1)NC(=O)c1cc2ccccc2o1 [11j]
Result: 0.96

Query: # get_value(readout= log10 of IC50, system= CVB3 3C^pro (Coxsackievirus B3, UniProt Q5UEA2)) for O=C(NCc1ccccc1)C(=O)[C@H](C[C@@H]1CCNC1=O)NC(=O)[C@H](Cc1ccccc1)NC(=O)c1cn2cc(Br)ccc2n1 [11l]
Result: 1.49

Query: # get_value(readout= log10 of IC50, system= CVB3 3C^pro (Coxsackievirus B3, UniProt Q5UEA2)) for CCCCNC(=O)C(=O)[C@H](C[C@@H]1CCNC1=O)NC(=O)[C@H](Cc1ccccc1)NC(=O)/C=C/c1ccccc1 [11b]
Result: 0.00
